Namalwa Cell Binding FON (Fold Over Negative) by entry:
- assayed.system: T1, CD20 (human CD20) (human, UniProt P11836 1-297)
- T1 construct: whole, on cells; The cell line for each value is named under assay
- T1 sequence (looked up): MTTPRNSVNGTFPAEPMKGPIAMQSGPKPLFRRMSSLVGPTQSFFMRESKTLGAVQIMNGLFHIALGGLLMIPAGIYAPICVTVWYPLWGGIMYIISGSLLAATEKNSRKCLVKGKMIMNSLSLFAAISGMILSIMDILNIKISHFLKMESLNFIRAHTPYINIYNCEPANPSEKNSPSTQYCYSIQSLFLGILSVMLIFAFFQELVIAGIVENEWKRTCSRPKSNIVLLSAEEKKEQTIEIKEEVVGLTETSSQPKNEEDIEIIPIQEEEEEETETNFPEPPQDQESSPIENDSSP
- protocol.text: flow cytometry, purified IgG at 10 nM on Namalwa cells (CD20+), FITC-LC detection, ratio over negative control
value.type: Namalwa Cell Binding FON (Fold Over Negative)

Ab5 (Exemplary Antibody Sequences 5), anti-CD20 antibody (antibody, V domains shown) VH: QVQLQESGPGLVKPSETLSLTCTVSGGSISSPDHYWGWIRQPPGKGLEWIGSIYASGSTFYNPSLKSRVTISVDTSKNQFSLKLSSVTAADTAVYYCARETDYSSGMGYGMDVWGQGTTVTVSS VL: DIQMTQSPSSLSASVGDRVTITCRASQSINSYLNWYQQKPGKAPKLLIYAASSLQSGVPSRFSGSGSGTDFTLTISSLQPEDFATYYCQQSLADPFTFGGGTKVEIK	17 fold
Ab6 (Exemplary Antibody Sequences 6), anti-CD20 antibody (antibody, V domains shown) VH: QITLKESGPTLVKPTQTLTLTCTFSGFSLDTEGVGVGWIRQPPGKALEWLALIYFNDQKRYSPSLKSRLTITKDTSKNQVVLTMTNMDPVDTAVYYCARDTGYSRWYYGMDVWGQGTTVTVSS VL: DIQMTQSPSSVSASVGDRVTITCRASQGISSWLAWYQQKPGKAPKLLIYAASSLQSGVPSRFSGSGSGTDFTLTISSLQPEDFATYYCQQAYAYPITFGGGTKVEIK	2 fold
Ab3 (Exemplary Antibody Sequences 3), anti-CD20 antibody (antibody, V domains shown) VH: QLQLQESGPGLVKPSETLSLTCTVSGGSISSSSYYWGWIRQPPGKGLEWIGSIYYSGSTYYNPSLKSRVTISVDTSKNQFSLKLSSVTAADTAVYYCARETDYSSGMGYGMDVWGQGTTVTVSS VL: DIQMTQSPSSLSASVGDRVTITCRASQSINSYLNWYQQKPGKAPKLLIYAASSLQSGVPSRFSGSGSGTDFTLTISSLQPEDFATYYCQQSLADPFTFGGGTKVEIK	16 fold
Ab1 (Exemplary Antibody Sequences 1), anti-CD20 antibody (antibody, V domains shown) VH: QVQLQQWGAGLLKPSETLSLTCAVYGGSFSGYYWSWIRQPPGKGLEWIGEIDHSGSTNYNPSLKSRVTISVDTSKNQFSLKLSSVTAADTAVYYCARGGGSWYSNWFDPWGQGTMVTVSS VL: DIQMTQSPSTLSASVGDRVTITCRASQSISSWLAWYQQKPGKAPKLLIYDASSLESGVPSRFSGSGSGTEFTLTISSLQPDDFATYYCQQDRSLPPTFGGGTKVEIK	12 fold

Source listed as patent US20240115611A1.
